The measurements presented in this section are drawn from ChEMBL document CHEMBL1124180.

Would you kindly list solubility for each of these compounds?
test: Solubility in aqueous media 0.15 N phosphate, pH 5.6; format: physicochemical; conditions: read-out: S
Note: unit µg/mL is implicit; provide only the numeric part.

# lookup: solubility of `Cl.N[C@H]1CCN(c2nc3c(cc2F)c(=O)c(C(=O)O)cn3-c2ccc(F)cc2F)C1`
4.3

And the next one, Cl.NC1CCN(c2nc3c(cc2F)c(=O)c(C(=O)O)cn3-c2ccc(F)cc2F)C1 (configuration not stated) ?
1.8

###

Would you kindly list MIC for each of these molecules?
test system: Prevotella melaninogenica; test: In vitro activity against Bacteroides melaninogenicus (ATCC 25845).; assay type: functional
Note: unit µg/mL is implicit; provide only the numeric part.

# lookup: MIC of CCC[C@@H]1C[C@@H](C(=O)N[C@@H]([C@H]2O[C@H](SC)[C@H](O)[C@@H](O)[C@H]2O)[C@H](C)Cl)N(C)C1 [CLINDAMYCIN]
0.03

And the next one, `Cl.N[C@H]1CCN(c2nc3c(cc2F)c(=O)c(C(=O)O)cn3-c2ccc(F)cc2F)C1` ?
0.5

And the next one, `Cl.N[C@@H]1CCN(c2nc3c(cc2F)c(=O)c(C(=O)O)cn3-c2ccc(F)cc2F)C1` ?
1

And the next one, O=C(O)c1cn(C2CC2)c2cc(N3CCNCC3)c(F)cc2c1=O [CIPROFLOXACIN] ?
2

###

test system: Phocaeicola vulgatus; assay: In vitro activity against Bacteroides vulgatus(SFBC 2375); assay type: functional
Would you kindly list MIC for each of these compounds?
Note: unit µg/mL is implicit; provide only the numeric part.

# lookup: MIC of `O=C(O)c1cn(C2CC2)c2cc(N3CCNCC3)c(F)cc2c1=O`
8

And the next one, `Cl.N[C@@H]1CCN(c2nc3c(cc2F)c(=O)c(C(=O)O)cn3-c2ccc(F)cc2F)C1` ?
1

And the next one, `Cl.N[C@H]1CCN(c2nc3c(cc2F)c(=O)c(C(=O)O)cn3-c2ccc(F)cc2F)C1` ?
0.25

###

experiment: Solubility in aqueous media Ringer''s buffer, pH 7.4; type: physicochemical
measured_quantity: solubility (µg/mL)
Note: unit µg/mL is implicit; provide only the numeric part.

# lookup: solubility of `Cl.N[C@H]1CCN(c2nc3c(cc2F)c(=O)c(C(=O)O)cn3-c2ccc(F)cc2F)C1`
13

###

system: Phocaeicola vulgatus; assay: In vitro activity against Bacteroides vulgatus(792); assay type: functional
measured_quantity: MIC

# lookup: MIC of `Cl.N[C@@H]1CCN(c2nc3c(cc2F)c(=O)c(C(=O)O)cn3-c2ccc(F)cc2F)C1`
2 µg/mL

And the next one, `CCC[C@@H]1C[C@@H](C(=O)N[C@@H]([C@H]2O[C@H](SC)[C@H](O)[C@@H](O)[C@H]2O)[C@H](C)Cl)N(C)C1` ?
< 0.015 µg/mL

And the next one, `O=C(O)c1cn(C2CC2)c2cc(N3CCNCC3)c(F)cc2c1=O` ?
8 µg/mL

And the next one, `Cl.N[C@H]1CCN(c2nc3c(cc2F)c(=O)c(C(=O)O)cn3-c2ccc(F)cc2F)C1` ?
0.5 µg/mL
